Cited source: ChEMBL document CHEMBL1777726

- run description: Displacement of [3H]-1,3-di(o-tolyl)guanidine from sigma 2 receptor in rat liver by scintillation analyzer
readout: pKi
Reminder that pKi means the negative base-10 logarithm of the concentration expressed in mol/L.

Query pKi for COC1Cc2ccccc2[C@]2(CC[C@H](N(C)Cc3ccccc3)CC2)O1 (stereo not given in full)
6.48

Query pKi for CCCCCN(Cc1ccccc1)[C@H]1CC[C@]2(CC1)OC(OC)Cc1ccccc12 (stereo not given in full)
6.14

Query pKi for CCN(Cc1ccccc1)[C@H]1CC[C@]2(CC1)OC(OC)Cc1ccccc12 (stereo not given in full)
6.18

Query pKi for COc1ccc(CN[C@H]2CC[C@@]3(CC2)OC(OC)Cc2ccccc23)cc1 (stereo not given in full)
6.18
